pKd values for the binders below.
Test Target: T1, Acro SARS-CoV-2 (COVID-19) S1 protein (SARS-CoV-2, UniProt P0DTC2 16-685)
T1 construct: also called SARS-CoV-2 S1
Experiment Summary: SPR
pKd: −log10 of the molar value.
Property Label: pKd

binder="variant 5-1 (Fc fusion) VHH: EVQLVESGGGLVQPGGSLRLSCAASGGTFSSIGMGWFRQAPGKEREFVAAISWDGGATAYADSVKGRFTISADNSKNTAYLQMNSLKPEDTAVYYCAKEDVGKPFDWGQGTLVTVSS" property_label=pKd data_value=7.82
binder="variant 5-67 (Fc fusion) VHH: EVQLVESGGGLVQPGGSLRLSCAASGFNVNDYAMGWFRQAPGKEREFVAGITSSVGVTNYADSVKGRFTISADNSKNTAYLQMNSLKPEDTAVYYCAADIFFVNWGRGTLVTVSS" property_label=pKd data_value=7.66
binder="variant 6-32 (Fc fusion) VHH: EVQLVESGGGLVQPGGSLRLSCAASGFTLDYYDMGWFRQAPGKEREFVALISWSGGSTYYADSVKGRFTISADNSKNTAYLQMNSLKPEDTAVYYCATDFYGWGTRERDAFDIWGQGTLVTVSS" property_label=pKd data_value=7.57
binder="variant 5-51 (Fc fusion) VHH: EVQLVESGGGLVQPGGSLRLSCAASGRPNSINWMGWFRQAPGKERQFVATITPGGNTNYADSVKGRFTISADNSKNTAYLLMNSLKPEDTAVYYCAAAAGTTWYGTLYEYDWGQGTLVTVSS" property_label=pKd data_value=7.59
binder="variant 6-5 (Fc fusion) VHH: EVQLVESGGGLVQPGGSLRLSCAASGRTFTMGWFRQAPGKEREFVASTNSAGSTNYADSVNGRFTISADNSKNTAYLQMNSLKPEDTAVYYCTTVDQYFDYWGQGTLVTVSS" property_label=pKd data_value=7.60
binder="variant 6-43 (Fc fusion) VHH: EVQLVESGGGLVQPGGSLRLSCAASGRTFSSYAMMGWFRQAPGKEREFVASVNWDASQINYADSVKGRFTISADNSKNTAYLQMNSLKPEDTAVYYCTTLGAVYFDSSGYHDYFDYWGQGTLVTVSS" property_label=pKd data_value=7.75
binder="variant 6-3 (Fc fusion) VHH: EVQLVESGGGLVQPGGSLRLSCAASGFTFSPSWMGWFRQAPGKEREFVATINEYGGRNYADSVKGRFTISADNSKNTAYLQMNSLKPEDTAVYYCARVDRDFDYWGQGTLVTVSS" property_label=pKd data_value=7.91
binder="variant 6-73 (Fc fusion) VHH: EVQLVESGGGLVQPGGSLRLSCAASGHTFSGYAMGWFRQAPGKEREFVAVITREGSTYYADSVKGRFTISADNSKNTAYLQMNSLKPEDTAVYYCARLGGEGFDYWGQGTLVTVSS" property_label=pKd data_value=6.99
binder="variant 6-30 (Fc fusion) VHH: EVQLVESGGGLVQPGGSLRLSCAASGFAFGDSWMGWFRQAPGKEREFVATINWSGVTAYADSVKGRFTISADNSKNTAYLQMNSLKPEDTAVYYCARADGYFDYWGQGTLVTVSS" property_label=pKd data_value=7.93
binder="variant 5-37 (Fc fusion) VHH: EVQLVESGGGLVQPGGSLRLSCAASGSTFSINAMGWFRQAPGKEREFVGGISRSGATTNYADSVKGRFTISADNSKNTAYLQMNSLKPEDTAVYYCAADGVPEYSDYASGPVWGQGTLVTVSS" property_label=pKd data_value=7.52
binder="variant 6-2 (Fc fusion) VHH: EVQLVESGGGLVQPGGSLRLSCAASGFTMSSSWMGWFRQAPGKEREFVTVISGVGTSYADSVKGRFTISADNSKNTAYLQMNSLKPEDTAVYYCARGPDSSGYGFDYWGQGTLVTVSS" property_label=pKd data_value=7.52
binder="variant 6-44 (Fc fusion) VHH: EVQLVESGGGLVQPGGSLRLSCAASGGTFGVYHMGWFRQAPGKEREFIGRITWTDGSTYYADSVKGRFTISADNSKNTAYLQMNSLKPEDTAVYYCFGLLEVYDMTFDYWGQGTLVTVSS" property_label=pKd data_value=8.09
binder="variant 6-34 (Fc fusion) VHH: EVQLVESGGGLVQPGGSLRLSCAASGSAFRSNAMGWFRQAPGKEREFVAHISWSSKSTYYADSVKGRFTISADNSKNTAYLQMNSLKPEDTAVYYCATYCSSTSCFDYWGQGTLVTVSS" property_label=pKd data_value=7.67
binder="variant 5-47 (Fc fusion) VHH: EVQLVESGGGLVQPGGSLRLSCAASGFTFGSYDMGWFRQAPGKEREFVTAINWSGARTAYADSVKGRFTISADNSKNTAYLQMNSLKPEDTAVYYCAARSVYSYEYNWGQGTLVTVSS" property_label=pKd data_value=7.56
binder="variant 5-63 (Fc fusion) VHH: EVQLVESGGGLVQPGGSLRLSCAASGFSLDYYDMGWFRQAPGKEREFVAALGWSGGSTDYADSVKGRFTISADNSKNTAYLQMNSLKPEDTAVYYCAAGNGGRYGIVERWGQGTLVTVSS" property_label=pKd data_value=7.98
